B1: HDV Ribozyme (parent)
chain: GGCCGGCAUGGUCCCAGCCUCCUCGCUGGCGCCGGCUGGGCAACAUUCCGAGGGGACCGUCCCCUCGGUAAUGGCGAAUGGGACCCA

variants of: B1; assay: self-cleavage, relative activity (ratio to wild type); higher = more cleavage; co-transcriptional
# binning rule on self-cleavage: bottom range (below 0.4), center range (0.4 to below 0.8), top range (0.8 or more)

stdin: Band assignment needed for C44A C62A please.
stdout: center range

stdin: Band assignment needed for U37C A71C please.
stdout: top range

stdin: Band assignment needed for U27C G67A please.
stdout: top range

stdin: Band assignment needed for C15U C36G please.
stdout: bottom range

stdin: Band assignment needed for U46A G68U please.
stdout: center range

stdin: Band assignment needed for G34A U79G please.
stdout: bottom range

Kindly consider the entry below.
stdin: Band assignment needed for U60A C85A please.
stdout: top range
